experiment summary: pKa of the amine
Type: physicochemical
assay conditions: Table 2; read-out: pKa
measure: pKa

{"compound": "CN1CCCCC1 [N-methyl piperidine]", "pKa": 10.1}
{"compound": "CN(C)C(C)(C)CO [2-dimethylamino 2-methyl 1-propanol]", "pKa": 10.2}

###

experiment summary: Amine-HCl salt precipitation potential index (Salt PPI) relative to ammonia salt
Format: physicochemical
assay conditions: Table 2; average over 225 to 300° F., ammonia benchmark = 1.0
measure: Salt PPI

(P) CN(C)CN(C)C
(Q) COCCCN(C)C
Between the two listed entries P and Q , which has its Salt PPI at the higher number? The response must carry the label of the picked entry.
P

###

experiment summary: Neutralization efficiency by two-phase titration (pH at amine titrant concentration)
Format: physicochemical
assay conditions: Table 2; 500 ppm amine titrant, 100° C., second set, averages of 3 repeated tests
measure: Neutral. Efficiency pH at 500 ppm

{"compound": "CN(C)C [Trimethylamine (TMA), Trimethylamine, reference compound]", "Neutral. Efficiency pH at 500 ppm": 8.0}
{"compound": "CC(C)C(C)N (stereo not drawn)", "Neutral. Efficiency pH at 500 ppm": 8.5}
{"compound": "CN1CCN(C)CC1", "Neutral. Efficiency pH at 500 ppm": 5.5}
{"compound": "CN1CCCC1", "Neutral. Efficiency pH at 500 ppm": 6.8}
{"compound": "CN1CCCCC1", "Neutral. Efficiency pH at 500 ppm": 7.5}
{"compound": "CN(C)CCN(C)C", "Neutral. Efficiency pH at 500 ppm": 6.7}
{"compound": "CN1CCOCC1 [N-methylmorpholine (NMM), N-methylmorpholine, reference compound]", "Neutral. Efficiency pH at 500 ppm": 5.4}
{"compound": "CN(C)CN(C)C", "Neutral. Efficiency pH at 500 ppm": 8.87}
{"compound": "CN(C)C(C)(C)CO [2-Dimethylamino 2-methyl 2-propanol (DMAMP) 80% azeotrope so]", "Neutral. Efficiency pH at 500 ppm": 6.3}

###

experiment summary: Neutralization efficiency by two-phase titration (pH at amine titrant concentration)
Type: physicochemical
assay conditions: Table 1; 1000 ppm amine titrant, 100° C., first set of tests
measure: Neutral. Efficiency pH at 1000 ppm

{"compound": "CN1CCN(C)CC1 [1,4-dimethylpiperazine]", "experimental value": 7.6}
{"compound": "CCCCN(C)CCCC [N-methyldibutylamine]", "experimental value": 5.0}
{"compound": "CC(C)C(C)N (centres unmarked) [1,2 Dimethyl propyl amine, 1,2 dimethylpropylamine]", "experimental value": 9.6}
{"compound": "CN1CCCC1 [N-methylpyrrolidine]", "experimental value": 8.1}
{"compound": "CN1CCOCC1 [N-methylmorpholine (NMM), N-methylmorpholine, reference compound]", "experimental value": 6.8}

(I) C#CCN(CC)CC [Diethylpropargylamine, diethylpropargylamine]
(II) NCc1ccco1 [Furfurylamine, furfurylamine]
Lower value of Neutral. Efficiency pH at 1000 ppm belongs to which: I or II ? The response must carry the label of the picked entry.
I
(I: 5.9, II: 8.5)

###

experiment summary: Neutralization efficiency by two-phase titration (pH at amine titrant concentration)
Format: physicochemical
assay conditions: Table 1; 500 ppm amine titrant, 100° C., first set of tests
measure: Neutral. Efficiency pH at 500 ppm

Example entries begin here.
{"molecule": "CCN(O)CC [Diethylhydroxylamine]", "experimental value": 4.1}
{"molecule": "CN(C)CCN(C)C", "experimental value": 6.7}

(a) C#CCN(CC)CC
(b) CN1CCCC1
Between the two listed entries a and b , which has its Neutral. Efficiency pH at 500 ppm at the higher number? The response must carry the label of the picked entry.
b

(a) CCCN(C)CCC
(b) CC(C)C(C)N (stereo not shown)
Between the two listed entries a and b , which has its Neutral. Efficiency pH at 500 ppm at the higher number? The response must carry the label of the picked entry.
b

###

experiment summary: Neutralization efficiency by two-phase titration (pH at amine titrant concentration)
Type: physicochemical
assay conditions: Table 2; 250 ppm amine titrant, 100° C., second set, averages of 3 repeated tests
measure: Neutral. Efficiency pH at 250 ppm

{"molecule": "CN1CCCC1 [N-methylpyrrolidine]", "Neutral. Efficiency pH at 250 ppm": 2.2}

(P) CN1CCCCC1 [N-methyl piperidine]
(Q) CC(C)C(C)N (stereo not drawn) [1,2 Dimethyl propyl amine, 1,2 dimethylpropylamine]
Between the two listed entries P and Q , which has its Neutral. Efficiency pH at 250 ppm at the higher number? The response must carry the label of the picked entry.
P
(P: 2.1, Q: 1.4)

###

experiment summary: Neutralization efficiency by two-phase titration (pH at amine titrant concentration)
Assay type: physicochemical
assay conditions: Table 1; 1000 ppm amine titrant, 100° C., first set of tests
measure: Neutral. Efficiency pH at 1000 ppm

{"compound": "CN(C)CCN(C)C [N,N,N′,N′-tetramethylethylenediamine]", "measure": "Neutral. Efficiency pH at 1000 ppm", "experimental value": 8.3}
{"compound": "CN(C)C1CCCCC1 [Dimethylcyclohexylamine, dimethylcyclohexylamine]", "measure": "Neutral. Efficiency pH at 1000 ppm", "experimental value": 5.2}
{"compound": "CN(C)C [Trimethylamine (TMA), Trimethylamine, reference compound]", "measure": "Neutral. Efficiency pH at 1000 ppm", "experimental value": 8.8}

(I) CCCNCCC [di-N-propyl amine, di-N-propylamine]
(II) CCN(O)CC [Diethylhydroxylamine]
Between the two listed entries I and II , which has its Neutral. Efficiency pH at 1000 ppm at the higher number? The response must carry the label of the picked entry.
I

###

experiment summary: pKa of the amine
Assay type: physicochemical
assay conditions: Table 1; read-out: pKa
measure: pKa

Example entries begin here.
{"compound": "CN1CCCC1", "experimental value": 10.3}
{"compound": "CN1CCN(C)CC1", "experimental value": 8.2}
{"compound": "CCCCN(C)CCCC", "experimental value": 10.3}

(a) CCN(O)CC [Diethylhydroxylamine]
(b) CC(C)C(C)N (stereo not shown)
Lower value of pKa belongs to which: a or b ? The response must carry the label of the picked entry.
a

###

experiment summary: Neutralization efficiency by two-phase titration (pH at amine titrant concentration)
Assay type: physicochemical
assay conditions: Table 1; 500 ppm amine titrant, 100° C., first set of tests
Experimental: Several amines were tested to determine their efficiencies in neutralizing acidic species and reducing deposits of hydrochloride and amine salts. The neutralization efficiency of these amines was tested using two-phase titration. For each amine tested, a titrand (100 ml) was placed in a flask. The titrand was designed to simulate an initial condensate and comprised 90 vol % naphtha and 10 vol % acidic water. […]
measure: Neutral. Efficiency pH at 500 ppm

Example entries begin here.
{"molecule": "NCc1ccco1 [Furfurylamine, furfurylamine]", "Neutral. Efficiency pH at 500 ppm": 6.5}
{"molecule": "CN1CCOCC1 [N-methylmorpholine (NMM), N-methylmorpholine, reference compound]", "Neutral. Efficiency pH at 500 ppm": 5.4}

(P) CN1CCN(C)CC1 [1,4-dimethylpiperazine]
(Q) CCCNCCC [di-N-propyl amine, di-N-propylamine]
(R) CCCCN(C)CCCC [N-methyldibutylamine]
Parameters: sort_field (Neutral. Efficiency pH at 500 ppm), sort_dir (desc). Answer by writing out the labels in the requested order.
P, Q, R
(P: 5.5, Q: 3.0, R: 2.0)

###

experiment summary: Neutralization efficiency by two-phase titration (pH at amine titrant concentration)
Type: physicochemical
assay conditions: Table 2; 250 ppm amine titrant, 100° C., second set, averages of 3 repeated tests
measure: Neutral. Efficiency pH at 250 ppm

{"compound": "CN(C)C [Trimethylamine (TMA), Trimethylamine, reference compound]", "Neutral. Efficiency pH at 250 ppm": 2.6}
{"compound": "CN1CCOCC1 [N-methylmorpholine (NMM), N-methylmorpholine, reference compound]", "Neutral. Efficiency pH at 250 ppm": 2.4}
{"compound": "CN(C)CCN(C)C", "Neutral. Efficiency pH at 250 ppm": 4.7}

(P) CN(C)C(C)(C)CO [2-Dimethylamino 2-methyl 2-propanol (DMAMP) 80% azeotrope so]
(Q) CN(C)CN(C)C
(R) CN1CCN(C)CC1
Parameters: sort_field (Neutral. Efficiency pH at 250 ppm), sort_dir (desc). Answer by writing out the labels in the requested order.
Q, R, P

###

experiment summary: pKa of the amine
Format: physicochemical
assay conditions: Table 1; read-out: pKa
Excerpt: Another factor indicative of the overall efficiency of a given amine is the logarithm of the acid dissociation constant, pKa. Generally, amines with higher pKa values are more efficient neutralizers. Accordingly, in another embodiment, the treatment composition may comprise an amine with a pKa equal to or greater than about 5.0.
measure: pKa

{"compound": "NCc1ccco1 [Furfurylamine, furfurylamine]", "measure": "pKa", "experimental value": 8.89}
{"compound": "CN1CCOCC1 [N-methylmorpholine (NMM), N-methylmorpholine, reference compound]", "measure": "pKa", "experimental value": 7.1}
{"compound": "C#CCN(CC)CC [Diethylpropargylamine, diethylpropargylamine]", "measure": "pKa", "experimental value": 7.7}
{"compound": "CN(C)CCN(C)C [N,N,N′,N′-tetramethylethylenediamine]", "measure": "pKa", "experimental value": 8.97}
{"compound": "CN(C)C1CCCCC1 [Dimethylcyclohexylamine, dimethylcyclohexylamine]", "measure": "pKa", "experimental value": 10}
